Reference source for all entries: patent US8536351B2

# Test system: Setaria faberi (SETFA)
# assayRemarks: Pre-emergence activity, glasshouse pot test (100=total damage to plant; 0=no damage to plant)
# Assay type: in vivo
# runConditions: rate 500 g/ha, evaluated 19, 20 or 21 days after spraying
Below, each entry is listed alongside its reported pest or weed control at 500 g/ha.
State just the number; it will be interpreted in %.

Answered cases to consult:
Data request: For Setaria faberi (SETFA), provide pest or weed control at 500 g/ha of Cc1cc(C)c(C2=C(O)CC(C3CCS(=O)(=O)CC3)CC2=O)c(C)c1 (centres unmarked) [Compound T17] please.
Data returned: 50

Data request: Follow-up entry: Cc1ccc(-c2ccc(Cl)cc2)cc1C1=C(O)CC(C2CCOCC2)CC1=O (centres unmarked) [Compound T9]
Data returned: 100

Data request: Follow-up entry: CCc1cc(C)cc(C)c1C1=C(O)CC(C2CCCSC2)CC1=O (centres unmarked) [Compound T16]
Data returned: 100

Data request: Follow-up entry: CC(=O)OC1=C(c2c(C)cc(C)cc2C)C(=O)CC(C2CCOC2)C1 (centres unmarked) [Compound P1]
Data returned: 0

Moving on to another compound below.
Data request: For Setaria faberi (SETFA), provide pest or weed control at 500 g/ha of CCc1cc(C)cc(CC)c1C1=C(O)CC(C2CCCS(=O)(=O)C2)CC1=O (centres unmarked) [Compound T19] please.
Data returned: 100

---

# Test system: Avena fatua (AVEFA)
# assayRemarks: Pre-emergence activity, glasshouse pot test (100=total damage to plant; 0=no damage to plant)
# Assay type: in vivo
# runConditions: rate 500 g/ha, evaluated 19, 20 or 21 days after spraying
assayMetric: pest or weed control at 500 g/ha (%)
State just the number; it will be interpreted in %.

Data request: For Avena fatua (AVEFA), provide pest or weed control at 500 g/ha of CCc1cc(C)cc(CC)c1C1=C(O)CC(C2CC[S+]([O-])CC2)CC1=O (stereo not drawn) [Compound T22] please.
Data returned: 90

Data request: Follow-up entry: CCc1cc(C)cc(CC)c1C1=C(O)CC(C2CCS(=O)(=O)CC2)CC1=O (stereo not drawn) [Compound T20]
Data returned: 100

Data request: Follow-up entry: Cc1cc(C)c(C2=C(O)CC(C3CCS(=O)(=O)CC3)CC2=O)c(C)c1 (stereo not drawn) [Compound T17]
Data returned: 70

Data request: Follow-up entry: CCc1cc(C)cc(C)c1C1=C(O)CC(C2CCCSC2)CC1=O (stereo not drawn) [Compound T16]
Data returned: 100

Data request: Follow-up entry: Cc1cc(C)c(C2=C(O)CC(C3CCCSC3)CC2=O)c(C)c1 (stereo not drawn) [Compound T14]
Data returned: 20

Data request: Follow-up entry: CCc1ccc(-c2ccc(Cl)cc2)cc1C1=C(O)CC(C2CCOC2)CC1=O (stereo not drawn) [Compound T6]
Data returned: 20

More entries:
Data request: For Avena fatua (AVEFA), provide pest or weed control at 500 g/ha of Cc1cc(C)c(C2=C(O)CC(C3CCOC3)CC2=O)c(C)c1 (stereo not drawn) [Compound T10] please.
Data returned: 50

Data request: Follow-up entry: CCc1ccc(-c2ccc(Cl)cc2)cc1C1=C(O)CC(C2CCOCC2)CC1=O (stereo not drawn) [Compound T8]
Data returned: 60

Data request: Follow-up entry: CCc1cc(C)cc(CC)c1C1=C(OC(C)=O)CC(C2CCCS(=O)(=O)C2)CC1=O (stereo not drawn) [Compound P2]
Data returned: 100

Data request: Follow-up entry: CCc1cc(C)cc(CC)c1C1=C(O)CC(C2CCSCC2)CC1=O (stereo not drawn) [Compound T18]
Data returned: 100

---

# System: Setaria faberi (SETFA)
# assayRemarks: Pre-emergence activity, glasshouse pot test (100=total damage to plant; 0=no damage to plant)
# Type: in vivo
# runConditions: rate 500 g/ha, evaluated 19, 20 or 21 days after spraying
assayMetric: pest or weed control at 500 g/ha

Answered cases to consult:
Data request: I am curious: what pest or weed control at 500 g/ha value has been reported for CCc1cc(C)cc(C)c1C1=C(O)CC(C2CCSCC2)CC1=O (stereo not drawn) ?
Data returned: 100%

Data request: Follow-up entry: Cc1cc(C)c(C2=C(O)CC(C3CCOCC3)CC2=O)c(C)c1 (stereo not drawn)
Data returned: 60%

Data request: Follow-up entry: CCc1cc(C)cc(CC)c1C1=C(OC(C)=O)CC(C2CCCS(=O)(=O)C2)CC1=O (stereo not drawn) [Compound P2]
Data returned: 100%

More entries:
Data request: I am curious: what pest or weed control at 500 g/ha value has been reported for CCc1cc(C)cc(CC)c1C1=C(O)CC(C2CCOCC2)CC1=O (stereo not drawn) ?
Data returned: 100%

Data request: Follow-up entry: CCc1cc(C)cc(CC)c1C1=C(O)CC(C2CCS(=O)(=O)CC2)CC1=O (stereo not drawn)
Data returned: 100%

Data request: Follow-up entry: CCc1cc(C)cc(CC)c1C1=C(O)CC(C2CCCSC2)CC1=O (stereo not drawn)
Data returned: 100%

---

Below, each entry is listed alongside its reported pest or weed control at 500 g/ha.
# Tested on: Lolium perenne (LOLPE)
# assayRemarks: Pre-emergence activity, glasshouse pot test (100=total damage to plant; 0=no damage to plant)
# Type: in vivo
# runConditions: rate 500 g/ha, evaluated 19, 20 or 21 days after spraying
State just the number; it will be interpreted in %.

Answered cases to consult:
Data request: I am curious: what pest or weed control at 500 g/ha value has been reported for CCc1ccc(-c2ccc(Cl)cc2)cc1C1=C(O)CC(C2CCOCC2)CC1=O (stereo not drawn) ?
Data returned: 80

Data request: Follow-up entry: CCc1cc(C)cc(CC)c1C1=C(O)CC(C2CC[S+]([O-])CC2)CC1=O (stereo not drawn)
Data returned: 90

Data request: Follow-up entry: Cc1cc(C)c(C2=C(O)CC(C3CCSCC3)CC2=O)c(C)c1 (stereo not drawn)
Data returned: 80

Data request: Follow-up entry: CCc1cc(C)cc(CC)c1C1=C(O)CC(C2CCOC2)CC1=O (stereo not drawn)
Data returned: 100

Data request: Follow-up entry: CCc1cc(C)cc(CC)c1C1=C(O)CC(C2CCCSC2)CC1=O (stereo not drawn)
Data returned: 100

More entries:
Data request: I am curious: what pest or weed control at 500 g/ha value has been reported for CCc1ccc(-c2ccc(Cl)cc2)cc1C1=C(O)CC(C2CCOC2)CC1=O (stereo not drawn) ?
Data returned: 100

Data request: Follow-up entry: CCc1cc(C)cc(C)c1C1=C(O)CC(C2CCOCC2)CC1=O (stereo not drawn)
Data returned: 100

Data request: Follow-up entry: CCc1cc(C)cc(C)c1C1=C(O)CC(C2CCOC2)CC1=O (stereo not drawn)
Data returned: 80

Data request: Follow-up entry: CCc1cc(C)cc(CC)c1C1=C(O)CC(C2CCC[S+]([O-])C2)CC1=O (stereo not drawn)
Data returned: 100

---

# Test system: Avena fatua (AVEFA)
# assayRemarks: Post-emergence activity, glasshouse pot test (100=total damage to plant; 0=no damage to plant)
# Assay type: in vivo
# runConditions: 336 h, rate 500 g/ha, evaluated 14 or 15 days after spraying
Below, each entry is listed alongside its reported pest or weed control at 500 g/ha.
State just the number; it will be interpreted in %.

Data request: I am curious: what pest or weed control at 500 g/ha value has been reported for CCc1cc(C)cc(C)c1C1=C(O)CC(C2CCSCC2)CC1=O (stereo not drawn) ?
Data returned: 70

Data request: Follow-up entry: Cc1cc(C)c(C2=C(O)CC(C3CCSCC3)CC2=O)c(C)c1 (stereo not drawn)
Data returned: 20

Data request: Follow-up entry: CCc1cc(C)cc(C)c1C1=C(O)CC(C2CCOC2)CC1=O (stereo not drawn)
Data returned: 90

Data request: Follow-up entry: CCc1cc(C)cc(CC)c1C1=C(O)CC(C2CCS(=O)(=O)CC2)CC1=O (stereo not drawn)
Data returned: 70

Data request: Follow-up entry: CCc1ccc(-c2ccc(Cl)cc2)cc1C1=C(O)CC(C2CCOC2)CC1=O (stereo not drawn)
Data returned: 90

Data request: Follow-up entry: Cc1cc(C)c(C2=C(O)CC(C3CCOC3)CC2=O)c(C)c1 (stereo not drawn)
Data returned: 60

More entries:
Data request: I am curious: what pest or weed control at 500 g/ha value has been reported for Cc1ccc(-c2ccc(Cl)cc2)cc1C1=C(O)CC(C2CCOC2)CC1=O (stereo not drawn) ?
Data returned: 90

Data request: Follow-up entry: CCc1ccc(-c2ccc(Cl)cc2)cc1C1=C(O)CC(C2CCOCC2)CC1=O (stereo not drawn)
Data returned: 70

Data request: Follow-up entry: CCc1cc(C)cc(CC)c1C1=C(O)CC(C2CC[S+]([O-])CC2)CC1=O (stereo not drawn)
Data returned: 90

Data request: Follow-up entry: CC(=O)OC1=C(c2c(C)cc(C)cc2C)C(=O)CC(C2CCOC2)C1 (stereo not drawn) [Compound P1]
Data returned: 20

Data request: Follow-up entry: Cc1ccc(-c2ccc(Cl)cc2)cc1C1=C(O)CC(C2CCOCC2)CC1=O (stereo not drawn)
Data returned: 70
